Each record here notes measured log10 of Kb.
- TARGET: Gamma-aminobutyric acid receptor subunit rho-1 (Homo sapiens)
- Sequence (P24046 whole entry): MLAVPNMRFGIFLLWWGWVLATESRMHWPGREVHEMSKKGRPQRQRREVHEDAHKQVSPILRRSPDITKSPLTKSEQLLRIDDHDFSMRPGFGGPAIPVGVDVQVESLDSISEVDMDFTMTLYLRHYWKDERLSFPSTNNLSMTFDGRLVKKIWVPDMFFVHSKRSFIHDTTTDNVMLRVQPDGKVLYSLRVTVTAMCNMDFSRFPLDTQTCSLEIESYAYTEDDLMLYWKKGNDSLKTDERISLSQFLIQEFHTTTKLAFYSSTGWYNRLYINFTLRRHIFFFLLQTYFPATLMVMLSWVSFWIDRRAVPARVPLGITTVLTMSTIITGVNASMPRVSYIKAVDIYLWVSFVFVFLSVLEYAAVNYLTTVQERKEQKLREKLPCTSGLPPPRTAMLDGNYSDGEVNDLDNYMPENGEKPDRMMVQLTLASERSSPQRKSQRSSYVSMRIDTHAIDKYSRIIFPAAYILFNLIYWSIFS
- ASSAY_NAME: Antagonist activity at human GABAc Rho1 receptor expressed in Xenopus oocytes assessed as whole cell current production by two electrode voltage clamp method
- Assay type: functional, cell-based
- MEASUREMENT_SETUP: Oocyte
Annotation: log10 of Kb, nM basis.

> print(dat)
                                 molecule  test.value
1            CP(=O)(O)[C@@H]1CC[C@H](N)C1        3.04
2                       O=[Se](O)C1CCNCC1        2.98
3          CP(=O)(O)C1=CCC(N)C1 (racemic)        3.26
4  NC1CC=C(P(=O)(O)Cc2ccccc2)C1 (racemic)        4.69
5            CCCCP(=O)(O)C1=CC[C@@H](N)C1        4.77

// moving on: another record for log10 of Kb
// query Which measured log10 of Kb value corresponds to O=C(O)Cc1c[nH]cn1 ?
// result 3.23

Each recorded value in this set is attributed to ChEMBL document CHEMBL1157459.
